Reported Human primary T Cell Binding (FOI) values for a set of binders
Test System: T1, human CD3 expressed on cells (human, UniProt P07766 23-207; P04234 22-171; P09693 23-182)
T1 construct: whole, on cells; CD3 complex on Jurkat cells and on human primary T cells
T1 sequence (P07766 23-207, chain 1 of 3): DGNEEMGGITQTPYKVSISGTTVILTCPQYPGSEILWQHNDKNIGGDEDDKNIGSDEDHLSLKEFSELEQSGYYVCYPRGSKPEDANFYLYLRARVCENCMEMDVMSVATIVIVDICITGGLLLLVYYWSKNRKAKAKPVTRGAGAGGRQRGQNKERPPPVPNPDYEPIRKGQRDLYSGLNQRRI
T1 sequence (P04234 22-171, chain 2 of 3): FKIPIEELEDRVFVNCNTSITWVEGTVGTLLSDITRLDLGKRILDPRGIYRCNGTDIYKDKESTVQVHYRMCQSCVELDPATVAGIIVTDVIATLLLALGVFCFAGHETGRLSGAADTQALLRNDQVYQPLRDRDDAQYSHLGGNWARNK
T1 sequence (P09693 23-182, chain 3 of 3): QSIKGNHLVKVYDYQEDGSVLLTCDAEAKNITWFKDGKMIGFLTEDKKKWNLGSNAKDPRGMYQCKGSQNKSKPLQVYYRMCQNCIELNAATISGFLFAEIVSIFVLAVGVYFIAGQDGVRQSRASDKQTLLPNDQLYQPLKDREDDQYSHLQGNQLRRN
Protocol Notes: flow cytometry, 25 nM
Readout: Human primary T Cell Binding (FOI)

binder="mAb 111 (antibody, V domains shown) VH: EVQLVESGGVLVKTGGSLRLSCVASGFSFKKAWMNWVRQAPGKGLEWVGRIKRNSDGGAADYAAPVKDRFTLSRDDSKNTLYLQMNSLKTEDTAVYYCTTLDSSSWYVGYYYMDVWGKGTTVTVSS VL: DIHMTQSPSSVSASLGDRVTFTCRASQNINNWLAWYQQKPGKAPKLLIYTASSLQSGVPSRFSGSGSGTDFTLTISSLQPDDFATYYCQQAHSLPITFGQGTRLGIK" result_unit=FOI obs_value=168
binder="mAb 108 (antibody, V domains shown) VH: QVQLVESGGGVVQPGRSLRLSCAASGFTFSSYGMHWVRQAPGKGLEWVAVIWYDGSNKYYEDSVKGRFTISRDNSKNTLHLQMNSLRVEDTAVYYCARGLEFDYWGQGTLVTVSS VL: DIVMTQTPLSSPVTLGQPASISCRSSQSLVHSDGITYLNWLQQRPGQPPRLLIYKISNRFSGVPDRFSGSGSGTDFTLKISRVEAEDVGVYYCMQATQFPWTFGQGTKVEIK" result_unit=FOI obs_value=0.772
binder="mAb 139 (antibody, V domains shown) VH: QVQLVESGGGVVQPGRSLRLSCAASGFTFSSYAMHWVRQAPGKGLEWVAVIWFDGTNKYYTDSVRGRFTISRDNSKNTLYLQMNSLRAEDTAVYYCATERGITETTRGFDYWGQGTLVTVSS VL: DIQMTQSPSSLSASVGDRVTITCRTSQGIGNDLDWYQQNPGKAPKRLIYATSNLQSGVPSRFSGSGSGTEFTLTISGLQPEDFTTYYCLRHNSYPYTFGQGTKLEIT" result_unit=FOI obs_value=0.678
binder="mAb 117 (antibody, V domains shown) VH: EVQLVESGGGLVKTGGSLRLSCVASGFSFKKAWMNWVRQAPGKGLEWVGRIKRNTDGGTTDYAAPVKGRFTLSRDDSKNTLYLQMNSLKTEDTAVYYCTTLDSSSLYVGYYYMDVWGKGTTVTVSS VL: DIQMTQSPSSVSASVGDRVTITCRASQDINNWLAWYQQKPGKAPKLLIYTASSLQSGVPSRFSGSGSGTDFTLTISSLQPEDFATYYCQQAHSLPITFGQGTRLEIK" result_unit=FOI obs_value=170
binder="mAb 120 (antibody, V domains shown) VH: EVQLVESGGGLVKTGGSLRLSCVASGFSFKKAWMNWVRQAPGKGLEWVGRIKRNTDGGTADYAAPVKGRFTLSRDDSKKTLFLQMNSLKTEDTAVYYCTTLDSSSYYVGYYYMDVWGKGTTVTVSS VL: DIQMTQSPSSVSASVGDRVTITCRASQDINNWLAWYQQKPGKAPKLLIYTASSLQSGVPSRFSGSGSGTDFTLTIGSLQPEDFATYYCQQAHSLPITFGQGTRLEIK" result_unit=FOI obs_value=167
